System: Staphylococcus sp.
procedure summary: in vitro antibacterial evaluation, MIC by broth dilution
Type: cell-based
recorded conditions: broth dilution, 18 hours at 35° C., inoculum 5×10^5 CFU/mL; strain GC 1131
Description: Methods for in vitro Antibacterial Evaluation (Table 1) […]
parameter: MIC Staphylococcus aureus (GC 1131) (µg/mL)
Please respond with the number in µg/mL and leave the unit unwritten.

As a guide, the following entries are already answered.
The reported value for COc1cccc(C2OCC3OC(OC4C(CO)OC(Oc5ccc(CC6NC(=O)C(C(C)c7ccccc7)NC(=O)CNC(=O)C(CO)NC(=O)C(C(O)C7CNC(=N)N7C7OC(CO)C(O)C(O)C7O)NC(=O)C(C(O)C7CNC(=N)N7)NC6=O)cc5)C(O)C4O)C(O)C(O)C3O2)c1 (stereo not shown) in terms of MIC Staphylococcus aureus (GC 1131) is 2

The reported value for CCCCCC1OCC2OC(OC3C(CO)OC(Oc4ccc(CC5NC(=O)C(C(C)c6ccccc6)NC(=O)CNC(=O)C(CO)NC(=O)C(C(O)C6CNC(=N)N6C6OC(CO)C(O)C(O)C6O)NC(=O)C(C(O)C6CNC(=N)N6)NC5=O)cc4)C(O)C3O)C(O)C(O)C2O1 (stereo not shown) in terms of MIC Staphylococcus aureus (GC 1131) is 1

The reported value for CC(c1ccccc1)C1NC(=O)CNC(=O)C(CO)NC(=O)C(C(O)C2CNC(=N)N2C2OC(CO)C(O)C(O)C2O)NC(=O)C(C(O)C2CNC(=N)N2)NC(=O)C(Cc2ccc(OC3OC(CO)C(OC4OC(CO)C(O)C5OC(CC67CC8CC(CC(C8)C6)C7)OC45)C(O)C3O)cc2)NC1=O (stereo not shown) in terms of MIC Staphylococcus aureus (GC 1131) is 4

New cases:
The reported value for CC(c1ccccc1)C1NC(=O)CNC(=O)C(CO)NC(=O)C(C(O)C2CNC(=N)N2C2OC(CO)C(O)C(O)C2O)NC(=O)C(C(O)C2CNC(=N)N2)NC(=O)C(Cc2ccc(OC3OC(CO)C(OC4OC5COC(c6ccc(Oc7ccc(C(C)(C)C)cc7)cc6)OC5C(O)C4O)C(O)C3O)cc2)NC1=O (stereo not shown) in terms of MIC Staphylococcus aureus (GC 1131) is 4

Values compiled from patent US6914045B2.
